Values compiled from PubChem BioAssay.

Reported composite Z-score values follow for various compounds
Assay Explanation: probe aXIP binding to arrayed compounds – biochemical, NeuroSMM set, 635/667 nm fluorescence, primary screen (AID 1119);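 note: probe is the protein aXip251-270 applied at 1 µg/mL to compound-printed slides; binding of probe to printed compounds measured as 667 nm fluorescence plus signal to noise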
Condition Info: small-molecule microarray, higher = more signal, called active from +8 up or from −8 down
Give the value as a plain number.

As a guide, the following entries are already answered.
Compound: CCC[C@@H]1C[C@@]1(CCC)[C@@H](NC(=O)c1cccs1)c1ccc(Cl)cc1
composite Z-score: -0.222

Compound: CO[C@H]1O[C@H](CO)[C@@H](OC(=O)Nc2cccc(F)c2)[C@H](OC(=O)Nc2ccc3c(c2)OCO3)[C@H]1OC(=O)Nc1ccc2c(c1)OCO2
composite Z-score: 0.859

Compound: COCCCNC(=O)[C@@H]1c2ccccc2C(=O)N(c2ccc(C)cn2)[C@H]1c1ccc(CO)cc1
composite Z-score: 0.567

Turning to the following compound.
Per the record, COc1cc(C(O)C2C=CC3C(=O)NC(=O)C3N2Nc2ccc(Cl)cc2Cl)cc(OC)c1OC (centres undefined) has composite Z-score of -0.762

###

Assay Explanation: budding yeast growth modifiers under rapamycin – strain BY4716, OD600, 96 h, primary screen (AID 1091); note: test concentration not given here
Condition Info: S. cerevisiae BY4716 + rapamycin, called active from +8 up or from −8 down
Calls of active or inactive are those of the source.
Outcome field: choose from active, inactive

Field: example entries. Status: answers known.
Test Smiles: C[N+](C)(C)CCCCCCNC(=O)[C@@H]1C[C@@H]2C(=O)NCC(=O)N2[C@@H]1c1ccc(O)cc1
Assigned Category: inactive
--
Test Smiles: CC(C)NC(=O)[C@@]1(Cc2ccccc2I)c2ccccc2C(=O)N(Cc2ccccc2C(F)(F)F)[C@H]1c1ccc(CO)cc1
Assigned Category: inactive
--
Test Smiles: O=C1O[C@H](c2ccccc2)[C@H](c2ccccc2)N2[C@H]1[C@@H](C(=O)N1CCCCCCC1)[C@]1(C(=O)Nc3ccccc31)[C@H]2c1ccc(O)cc1
Assigned Category: inactive
--
Test Smiles: COCCCNC(=O)[C@@]1(Cc2ccccc2N=[N+]=[N-])N=C(c2ccc(OCCCO)cc2)O[C@H]1c1ccccc1CN=[N+]=[N-]
Assigned Category: inactive
--
Test Smiles: CN(C)C(=O)[C@]1(Cc2ccccc2N=[N+]=[N-])N=C(c2ccc(OCCCO)cc2)O[C@@H]1c1ccccc1CN=[N+]=[N-]
Assigned Category: inactive
--
Test Smiles: CCOC(=O)C1=CC[C@@H](c2ccc(N(CC)CC)cc2)N(S(=O)(=O)c2ccc(C)cc2)[C@H]1c1ccc([N+](=O)[O-])cc1
Assigned Category: inactive

Let us examine a further case.
Test call, this molecule: COCCCNC(=O)[C@]1(Cc2ccccc2CN=[N+]=[N-])N=C(c2ccc(OCCCO)cc2)O[C@@H]1c1ccccc1CN=[N+]=[N-]
active

###

Assay Explanation: binders of probe aHhip on microarray, primary screen, stem cell growth factor project, biochemical, small-molecule microarray, fluorescence 635/667 (AID 1087);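 note: score merges spot fluorescence at 667nm with spot signal to noise ratio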
Condition Info: higher = more signal
Measure: composite z-score

Worked cases, answers included:
Compound: COCCCNC(=O)[C@]1(Cc2ccccc2)N=C(c2ccc(OCCCO)cc2)O[C@@H]1c1ccccc1N=[N+]=[N-]
Observed Measurement: -0.0994
//
Compound: CC1CC/C=C\[C@H]2OC34C=CCN(Cc5ccccc5)C(=O)[C@H]3N(CCO)C(=O)[C@@H]4C2C(=O)O1 (some centres not stated)
Observed Measurement: -0.0994

The record that follows has no composite z-score shown yet.
composite z-score recorded for this compound, O=C1c2ccccc2[C@](Cc2ccccc2I)(C(=O)NCC(F)(F)F)[C@H](c2ccc(CO)cc2)N1Cc1ccccc1 , is 0.0734

###

Assay Explanation: change in splice reporter luminescence, either direction, cell-based, HEK293, spliceosome inhibition project, primary screen (AID 1101);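 note: HEK293 cells carrying a splicing-competent luciferase reporter gene; test concentration not given here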
Condition Info: HEK293 splicing luciferase reporter, 24 h, higher = more signal, called active from +8 up or from −8 down
Recorded z-score, one value per entry.
# respond with the number and nothing more

Compound: C=C(C(=O)CC[C@H](OC(=O)c1cccnc1)c1ccc(OCCO)cc1)C(C)C
z-score: 1.77

Entry under test: O=C1O[C@H](c2ccccc2)[C@H](c2ccccc2)N2[C@H]1[C@@H](C(=O)NC[C@H](O)c1ccccc1)[C@]1(C(=O)Nc3ccccc31)[C@H]2c1ccccc1OCCO . Its z-score was -2.06

// Cc1ccc(S[C@]2(C(=O)NCc3ccccc3)CC(=O)N(C3Cc4ccccc4C3)[C@@H]2c2ccc(CO)cc2I)cc1 : z-score value = -1.83

Entry COC(=O)[C@@]1(Cc2ccc(F)cc2)[C@H]2c3cc(C(=O)N4CCCC4)n(Cc4ccccc4)c3C[C@H]2CN1C(=O)c1ccccc1 , z-score reported as -2.67

z-score for C=CC[C@@]1(C(=O)NCCN2CCOCC2)N=C(c2ccc(OCCCO)cc2)O[C@@H]1c1ccccc1 is -0.161

Form field z-score, entry OCc1ccc(-c2cc[n+](Cc3cccc(OC(F)(F)F)c3)cc2)cc1 : 1.36

// z-score lookup, compound = Cc1ccc(S[C@]2(C(=O)O)CC(=O)N(C3CCCCC3)[C@@H]2c2ccc(CO)cc2)cc1 , result: 0.134

Quick note, z-score for COC(=O)[C@]1(Cc2ccccc2CN=[N+]=[N-])N=C(c2ccc(OCCCO)cc2)O[C@@H]1c1ccccc1CN=[N+]=[N-] landed at -0.613

Noted for COC(=O)[C@@]1(Cc2ccccc2)[C@H]2c3cc(C(=O)N(C)C)n(Cc4ccc(O)c(OC)c4)c3C[C@H]2CN1C(=O)c1ccccc1 : its z-score reads -6.3

For record CC(C)(C)OC(=O)CC[C@@]1(C(=O)N2CCCCC2)N=C(c2ccc(OCCCO)cc2)O[C@@H]1c1ccccc1CN=[N+]=[N-] the listed z-score is -2.55

So, C/C=C/[C@@H](CCn1cc([C@H](O)c2ccccc2)nn1)[Si](C)(C)c1ccc(OC)cc1 ? Its z-score was -0.406

// field: z-score; key: CC(C)N1C(=O)c2ccccc2[C@](C)(C(=O)O)[C@@H]1c1ccc(CO)cc1 ; value = 0.591

Form: compound = COc1ccccc1CN1C(=O)c2ccccc2[C@](Cc2ccccc2I)(C(=O)NCCN2CCOCC2)[C@@H]1c1ccc(CO)cc1 ; z-score = 0.233

The measured z-score associated with C=C(C)[C@@H]1CC=C(C(O)C2C=CC3C(=O)N(C4CCCCC4)C(=O)C3N2Nc2ccc(OC)cc2)CC1 (stereo not given in full) reads -0.603

For reference, reported z-score for CCOC(=O)C[C@H]1[C@H](OC(=O)c2cc3ccccc3oc2=O)[C@@H](NC(=O)c2ccc3ccccc3n2)c2cc(OCCCO)ccc2N1C(=O)c1ccc2ccccc2n1 stands at 0.613

###

Tested on: Human papillomavirus type 1a E7 protein (residues 1-88)
Assay Explanation: HPV1a E7 small-molecule binders, primary screen, biochemical, small-molecule microarray, residues 1-88, 635 nm (AID 1129)
Condition Info: small-molecule microarray binding, fluorescence 635 nm; higher = more signal
Measure: composite z-score
The answer should be written as a number, with no unit following it.

Compound: O=C1O[C@H](c2ccccc2)[C@H](c2ccccc2)N2[C@H]1[C@@H](C(=O)N1CCN(c3ncccn3)CC1)[C@]1(C(=O)Nc3ccc(C#CCCO)cc31)[C@H]2c1ccc(OCCO)cc1
Observed Measurement: 1.2

// recorded composite z-score for COc1ccc([Si](C)(C)[C@@H]2[C@@H](CCO)O[C@]3(C(=O)N(Cc4ccc(N5C(=O)c6ccccc6Oc6ccccc65)cc4)c4ccccc43)[C@H]2C)cc1 : -0.235

Summary for this compound, C=C(CCCC)/C(=C/C[C@H](OC(=O)c1ccncc1)c1ccc(CO)o1)c1cc(C(=O)OC)ccc1OC : composite z-score is 1.19

composite z-score recorded for this compound, COCCOC(=O)N1C(=O)[C@@]2(c3cc(C#CCCO)ccc31)[C@H](C(=O)N1CCc3cc(OC)c(OC)cc3C1)[C@H]1C(=O)O[C@H](c3ccccc3)[C@H](c3ccccc3)N1[C@@H]2c1ccc(OCCO)cc1 , is 1.08

What the record says about CCOC(=O)C[C@H]1[C@H](OC(=O)c2ccccc2-c2ccccc2)[C@@H](NC(=O)c2ccccc2)c2cc(OCCCO)ccc2N1C(=O)Cc1ccc(OC)cc1 : composite z-score is -0.64

N#Cc1ccc(NN2C(C(O)c3ccco3)C=CC3C(=O)N(c4ccccc4)C(=O)C32)cc1 (stereo unspecified) has a reported composite z-score of -0.0085

###

Recorded measurements of composite Z-score, one per entry
Assay Explanation: probe aXIP binding to arrayed compounds – biochemical, NeuroSMM set, 635/667 nm fluorescence, primary screen (AID 1119);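 note: probe is the protein aXip251-270 applied at 1 µg/mL to compound-printed slides; binding of probe to printed compounds measured as 667 nm fluorescence plus signal to noise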
Condition Info: small-molecule microarray, higher = more signal, called active from +8 up or from −8 down
The source made the active and inactive calls.

Please review the entries below; each comes with its answer.
Molecule: C=C[C@H](C)[C@H](OC(=O)Nc1ccc(SC)cc1)c1ccc(O)c2ccccc12
Observed Measurement: -0.53 (inactive)

Molecule: [N-]=[N+]=NCc1ccccc1[C@H]1OC(c2ccc(OCCCO)cc2)=N[C@@]1(Cc1ccccc1N=[N+]=[N-])C(=O)N1CCCCC1
Observed Measurement: -0.202 (inactive)

Molecule: CC1(C)[C@@H]2CC(C(O)C3C=CC4C(=O)N(c5ccccc5)C(=O)C4N3Nc3ccccc3F)=C[C@@H]1C2 (some centres undefined)
Observed Measurement: 0.0252 (inactive)

Molecule: COCCOC(=O)N1C(=O)[C@@]2(c3cc(C#Cc4ccc(OC)cc4)ccc31)[C@H](C(=O)N1CCc3cc(OC)c(OC)cc3C1)[C@H]1C(=O)O[C@H](c3ccccc3)[C@H](c3ccccc3)N1[C@@H]2c1ccc(OCCO)cc1
Observed Measurement: -0.527 (inactive)

# composite Z-score (molecule: CCOC(=O)C1=CC[C@@H](c2ccc(N(CC)CC)cc2)N(S(=O)(=O)c2ccc(C)cc2)[C@H]1c1ccc([N+](=O)[O-])cc1 ) is 0.38 (inactive)

GET /value?item= C=CCC(OC(C)=O)[C@@H]1[C@@H](N(Cc2ccc(-c3ccccc3)cc2)C(=O)Cc2ccc(OC)cc2)c2cc(OCCCO)ccc2N1C(=O)c1ccc(-c2ccccc2)cc1 (some centres undefined) &field=composite Z-score returns -0.427 (inactive)

// composite Z-score value for CC(C)C(CO)N1C(=O)[C@@H]2[C@H]3C(=O)OCC=C[C@H]3OC23C=CCN(CCN2CCOCC2)C(=O)[C@@H]13 (some centres undefined) : -0.0157 (inactive)

Record COC(=O)[C@@]1(Cc2ccc(OC)cc2)[C@H]2c3cc(C(=O)N(C)C)n(Cc4cc(F)c(F)c(F)c4)c3C[C@H]2CN1C(=O)c1ccccc1 , field composite Z-score: -0.37 (inactive)

response.value for O=C(O)[C@@]1(Cc2ccccc2)COC(c2ccc(OCCCO)cc2)=N1 (field: composite Z-score) = 0.133 (inactive)

Given item C=CC[C@@]1(C(=O)NCC(O)CO)N=C(c2ccc(OCCCO)cc2)O[C@@H]1c1ccccc1 (some centres undefined) , the value recorded as its composite Z-score is 1.81 (inactive)

Per the record, NC(=O)NCC#Cc1ccc2c(c1)[C@]1(C(=O)N2)[C@H](c2ccc(O)cc2)N2[C@H](c3ccccc3)[C@H](c3ccccc3)OC(=O)[C@H]2[C@@H]1C(N)=O has composite Z-score of 0.251 (inactive)

C[N+](C)(C)CCCC[C@@H]1NC(=O)[C@H]2C[C@@H](C(=O)NCCCCCCN)[C@@H](c3cccc(OCCO)c3)N2C1=O yielded composite Z-score of 0.514 (inactive)

Value of measured composite Z-score for the entry COC(=O)C(CC#Cc1ccc2c(c1)[C@]1(C(=O)N2)[C@H](c2ccccc2OCCO)N2[C@H](c3ccccc3)[C@H](c3ccccc3)OC(=O)[C@H]2[C@@H]1C(=O)Nc1nc2ccccc2s1)C(=O)OC : -0.364 (inactive)

response.value for COCCCNC(=O)[C@@H]1c2ccccc2C(=O)N(Cc2cc(F)cc(C(F)(F)F)c2)[C@H]1c1ccc(CO)cc1 (field: composite Z-score) = 0.147 (inactive)
